- experimental-target: T1, PMA-treated THP-1 cells (endogenously expressed human MSR1) (Homo sapiens, UniProt P21757)
- T1 construct: endogenous in cells; host or cells: THP-1 cells differentiated with PMA
- T1 sequence (P21757 1-451): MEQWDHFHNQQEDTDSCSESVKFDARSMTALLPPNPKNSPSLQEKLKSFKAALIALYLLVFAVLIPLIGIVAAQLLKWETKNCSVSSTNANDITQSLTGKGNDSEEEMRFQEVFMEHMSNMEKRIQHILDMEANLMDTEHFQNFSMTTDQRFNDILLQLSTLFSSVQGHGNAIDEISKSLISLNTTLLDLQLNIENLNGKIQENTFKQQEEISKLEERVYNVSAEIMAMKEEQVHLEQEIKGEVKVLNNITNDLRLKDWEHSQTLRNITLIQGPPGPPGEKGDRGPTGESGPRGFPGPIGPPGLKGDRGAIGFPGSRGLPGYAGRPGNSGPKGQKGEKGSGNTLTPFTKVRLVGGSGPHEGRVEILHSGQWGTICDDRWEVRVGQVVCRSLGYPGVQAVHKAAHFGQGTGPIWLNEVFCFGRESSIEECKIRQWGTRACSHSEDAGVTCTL
- method-summary: Electrochemiluminescence antibody binding assay on MSR1-expressing cells
- Format: cell-based
readout-label: Ratio of 11 nM Antibody Binding Signal (RLU) to isotype control, PMA-treated THP-1
Answer as a number with no unit attached.

Q) Endpoint output: Ratio of 11 nM Antibody Binding Signal (RLU) to isotype control, PMA-treated THP-1 of H1H27754P-N297Q: one of "Twelve anti-MSR1 antibodies"; "made with an N297Q single point mutation in human Fcγ portion" (antibody, V domains shown) VH: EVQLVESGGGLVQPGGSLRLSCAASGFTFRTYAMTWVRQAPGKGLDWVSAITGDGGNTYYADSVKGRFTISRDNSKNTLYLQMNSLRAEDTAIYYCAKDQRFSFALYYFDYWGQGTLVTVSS VL: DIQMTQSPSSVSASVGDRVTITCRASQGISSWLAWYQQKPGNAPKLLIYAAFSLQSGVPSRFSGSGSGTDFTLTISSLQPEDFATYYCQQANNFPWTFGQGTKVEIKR . Value?
A) 66

Sourced from patent US12497460B2
